Hey, just so you know, these numbers are from PubChem BioAssay (NCI).

Can you tell me TGI for the items I'm about to list?
# Test system: SK-MEL-28 melanoma
# test method notes: NCI tumour cell line growth inhibition, 48 h

**Q:** Find the recorded TGI belonging to O=C1/C(=C(/c2ccccc2)N2CCOCC2)Cc2ccccc21 and report it.
**A:** 2.85 µM

**Q:** And CN(C)CCCN=c1c2ccccc2n(O)c2ccccc12 ?
**A:** > 100 µM

**Q:** Same for CC1=CCC(O)C=CC(C)C(O)C(C)C=C(C)C(=O)c2c(O)c(C)cc3c2C(=O)C(N)=C(NC(=O)/C=C\C=C/C=CC(C)C(O)CC1=O)C3=O (configuration not stated)
**A:** > 100 µM

**Q:** Likewise for c1cnn(CN(Cn2cccn2)Cn2cccn2)c1 ?
**A:** > 100 µM

**Q:** // same read-out, input: O=C(CCc1nc(=S)[nH][nH]1)Nc1ccccc1Cl
**A:** > 100 µM

**Q:** Please do the same for c1ccc(C2N3CCCCC3[C@@H]3c4[nH]c5ccccc5c4CCN23)nc1 (some centres not stated) as well.
**A:** > 100 µM

**Q:** Note, next up: COc1cc(OC)c(C(=O)/C=C/c2cccc(C(F)(F)F)c2)c(OC)c1
**A:** 4.74 µM
